- Test system: HCT-116 colon
- testMethodNotes: NCI tumour cell line growth inhibition, 48 h
measuredMetric: TGI (µM)
Write it as a number; the unit µM goes unstated.

>>> df
                            smilesstructure  measuredmetric  valueobserved
0  C1=C\CCCCN2CC[C@H]3[C@H](CCCC/C=C\CCCN4C[C@@H](CCCCC/1)C[C@@H]3C4)C2             TGI           20.8

q: Which TGI is listed for O=C(c1ccc(Nc2nccc(NCCCCNc3ccnc4cc(Cl)ccc34)n2)cc1)N1CCCCC1 ?
a: 2.42

---

Entries and their TGI values follow.
- Test system: EKVX NSCLC
- testMethodNotes: NCI tumour cell line growth inhibition, 48 h

Consider the worked cases shown below.
compound	valueObserved
CCC(C(=O)[C@@H](C)[C@@H](O)[C@H](C)[C@@H]1O[C@@H]([C@@H](CC)C(=O)ONC(=O)c2ccccc2)CC[C@@H]1C)[C@H]1O[C@]2(C=CC(=O)[C@]3(CC[C@@](C)([C@H]4CC[C@](O)(CC)[C@H](C)O4)O3)O2)[C@H](C)C[C@@H]1C (stereo partly drawn)	2.65 µM
CCOc1nc2sc3c(c2c(=O)n1CCSSCCn1c(OCC)nc2sc4c(c2c1=O)CCCC4)CCCC3	> 100 µM
COc1cc2cnc3c4cc(OC)c(OC(C)C)cc4ccc3c2cc1OC	> 100 µM

q: Which TGI is listed for CC(O)C1OC(n2ccc(=O)[nH]c2=O)CC1n1cncn1 (stereo not drawn) ?
a: > 100 µM

q: Which TGI is listed for CCOC(=O)C1=NNC(C(=O)c2ccccc2)C1c1ccccc1 (stereo not drawn) ?
a: 36.6 µM

q: Which TGI is listed for CN1C(=O)N(c2nc3ccccc3[nH]2)C(C)(C)C1=O ?
a: > 100 µM

q: Which TGI is listed for Cc1ccc(NC(=O)CCC(=O)C2Cc3ccccc3C2=O)cc1C (stereo not drawn) ?
a: > 100 µM

q: Which TGI is listed for CC[C@]1(Cc2ccc(OC)c(OC)c2)C=[N+]([O-])O[C@H](OCc2ccccc2)[C@@H]1OC(C)=O ?
a: 67.5 µM
